# System tested: sGCcat (Homo sapiens, UniProt Q02108+Q02153)
# Construct: a smaller construct of the catalytic domain (sGCcat)
# Sequence (Q02108 481-608 limits assumed): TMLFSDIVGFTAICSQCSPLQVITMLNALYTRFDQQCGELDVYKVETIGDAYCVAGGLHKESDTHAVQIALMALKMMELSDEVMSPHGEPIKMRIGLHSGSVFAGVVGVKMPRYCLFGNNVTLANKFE
# Sequence (Q02153 421-554 limits assumed): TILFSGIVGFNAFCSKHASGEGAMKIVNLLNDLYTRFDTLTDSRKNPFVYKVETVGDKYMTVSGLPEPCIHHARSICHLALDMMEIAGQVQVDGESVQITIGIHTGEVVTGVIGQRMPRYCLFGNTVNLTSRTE
# Test description: SPR binding to catalytic domain of sGC
# Experimental setup: discussion of Table 1
Test readout: binding to sGCcat (in words)

Consider the worked cases shown below.
compound="N#Cc1ccc2nc(Nc3ccc(O)cc3)c(Nc3ccc(O)cc3)nc2c1 [Compound 23]" result="bind to the receptor"
compound="Oc1ccc(Nc2nc3ccc(C(F)(F)F)cc3nc2Nc2ccc(O)cc2)cc1 [Compound 21]" result="higher binding"
compound="O=[N+]([O-])c1ccc2nc(Nc3ccc(O)cc3)c(Nc3ccc(O)cc3)nc2c1 [Compound 10]" result="higher binding"
compound="O=[N+]([O-])c1ccc2nc(Nc3cccc(O)c3)c(Nc3cccc(O)c3)nc2c1 [Compound 14]" result="higher binding"
compound="Oc1ccc(Nc2nc3ccc(Cl)cc3nc2Nc2ccc(O)cc2)cc1 [Compound 25]" result="bind to the receptor"

Q: Return reported binding to sGCcat (in words); argument: N#Cc1ccc2nc(Nc3cccc(O)c3)c(Nc3cccc(O)c3)nc2c1 [Compound 24]
Ans: bind to the receptor

Q: Find the recorded binding to sGCcat (in words) belonging to Oc1cccc(Nc2nc3ccc(Cl)cc3nc2Nc2cccc(O)c2)c1 [Compound 26] and report it.
Ans: bind to the receptor

---

# System tested: sGCcat (Homo sapiens, UniProt Q02108+Q02153)
# Construct: a smaller construct of the catalytic domain (sGCcat)
# Test description: SPR binding to catalytic domain of sGC
# Experimental setup: Biacore T200, 25 °C
Please provide measured sGCcat (SPR) binding norm. resp. (RU) for the entries that follow.
Give your result in RU as a bare value.

Q: Name the recorded sGCcat (SPR) binding norm. resp. (RU) for N#Cc1ccc2nc(Nc3cccc(O)c3)c(Nc3cccc(O)c3)nc2c1 [Compound 24] .
Ans: 10.5

Q: Which sGCcat (SPR) binding norm. resp. (RU) is listed for O=[N+]([O-])c1ccc2nc(Nc3cccc(O)c3)c(Nc3cccc(O)c3)nc2c1 [Compound 14] ?
Ans: 11.6

Q: I would be grateful if you could share the reported sGCcat (SPR) binding norm. resp. (RU) for CC(=O)Nc1ccc(Nc2nc3ccc([N+](=O)[O-])cc3nc2Nc2ccc(NC(C)=O)cc2)cc1 [Compound 17] .
Ans: 0.8

Q: # lookup: sGCcat (SPR) binding norm. resp. (RU) of N#Cc1ccc2nc(Nc3ccc(O)cc3)c(Nc3ccc(O)cc3)nc2c1 [Compound 23]
Ans: 4.5

Q: Quick one: sGCcat (SPR) binding norm. resp. (RU) of Oc1ccc(Nc2nc3ccc(Cl)cc3nc2Nc2ccc(O)cc2)cc1 [Compound 25] ?
Ans: 9.7

Q: # input molecule: Oc1ccc(Nc2nc3ccc(C(F)(F)F)cc3nc2Nc2ccc(O)cc2)cc1 [Compound 21] ; wanted: its sGCcat (SPR) binding norm. resp. (RU)
Ans: 6.4

Q: Given the entry CC(=O)Nc1cccc(Nc2nc3ccc([N+](=O)[O-])cc3nc2Nc2cccc(NC(C)=O)c2)c1 [Compound 18] , report its measured sGCcat (SPR) binding norm. resp. (RU).
Ans: 3.0

Q: Which measured sGCcat (SPR) binding norm. resp. (RU) value corresponds to Oc1cccc(Nc2nc3ccc(C(F)(F)F)cc3nc2Nc2cccc(O)c2)c1 [Compound 22] ?
Ans: 3.0

Q: Bench note: what sGCcat (SPR) binding norm. resp. (RU) did Oc1ccc(Nc2nc3ccccc3nc2Nc2ccc(O)cc2)cc1 [Compound 20] show?
Ans: 12.4

Q: Look up sGCcat (SPR) binding norm. resp. (RU) for this molecule: O=[N+]([O-])c1ccc2nc(Nc3ccc(F)cc3)c(Nc3ccc(F)cc3)nc2c1 [Compound 19]
Ans: 1.9

Q: Fill in the blank: the reported sGCcat (SPR) binding norm. resp. (RU) of Nc1ccc2nc(Nc3ccc(O)cc3)c(Nc3ccc(O)cc3)nc2c1 [Compound 29] is ____.
Ans: 9.9

Q: Requested field: sGCcat (SPR) binding norm. resp. (RU). Item: O=[N+]([O-])c1ccc2nc(Nc3ccccc3)c(Nc3ccccc3)nc2c1 [Compound 16]
Ans: 2.6
